Tested on: LXFL 529 NSCLC
assay-details: NCI tumour cell line growth inhibition, 48 h
measure-name: TGI

As a guide, the following entries are already answered.
| compound | TGI |
| --- | --- |
| O=C1c2cccc3cccc(c23)C(=O)N1CCCN1CCN(CCCN2C(=O)c3cccc4cccc(c34)C2=O)CC1 | > 100 µM |
| C/C(=N/Nc1ccc([N+](=O)[O-])cc1[N+](=O)[O-])C(CC(C(=O)Nc1ccccc1C)/C(C)=N\Nc1ccc([N+](=O)[O-])cc1[N+](=O)[O-])C(=O)Nc1ccccc1C (centres undefined) | 27.9 µM |
| CCCCCCCCCCCCCCCC(=O)OCC1OC(n2ccc(N)nc2=O)C(O)C1O (centres undefined) | > 100 µM |

Let's switch to this compound now.
Query string: Give TGI (LXFL 529 NSCLC) of the following compound: O=C1CC2Sc3ccccc3N=C2N1c1ccc(Cl)cc1Cl (centres undefined)
Result string: > 100 µM
